Listed below are compounds with IC50 for human ACC2 (Homo sapiens (Human), UniProt O00763), each taken from published literature.

compound: CCNC(=O)C(C)c1ccc(O[C@@H]2CCN(c3ccc(OC4CCCCC4)nc3)C2)cc1 (stereo partly shown)
study.system: human ACC2 (Homo sapiens (Human), UniProt O00763)
IC50 / nM: 583
//
compound: CC(=O)NC(C)Cc1ccc(C#Cc2cnc(NCC3CC3(C)C)nc2)cc1 (stereo not shown)
study.system: human ACC2 (Homo sapiens (Human), UniProt O00763)
IC50 / nM: 660
//
compound: CC(=O)NC(C)c1ccc(CN2CCc3c(cccc3OCC3CC3)C2)cc1 (stereo not shown)
study.system: human ACC2 (Homo sapiens (Human), UniProt O00763)
IC50 / nM: 878
//
compound: CC(=O)N[C@@H](C)c1ccc(O[C@@H]2CCN(c3ccnc(C(F)(F)F)c3)C2)cc1
study.system: human ACC2 (Homo sapiens (Human), UniProt O00763)
IC50 / nM: 438

----------
pIC50: −log10 of the molar value.
Listed below are compounds with pIC50 for UniProtKB O00763, each taken from published literature.

compound: CCOc1ccc(C#Cc2ccc(CC(C)NC(C)=O)cc2)nn1 (stereo not shown)
pIC50: 5.80
--
compound: CCCNc1ncnc(N2CC[C@@H](Oc3ccc(C(C)C(=O)NCC)cc3)C2)c1F (stereo partly shown)
pIC50: 5.99
--
compound: C[C@H](NC(=O)c1ccns1)c1ccc(CN2CCc3cc(OCC4CC4(F)F)ccc3C2)cc1 (stereo partly shown)
pIC50: 7.17

----------
Listed below are molecules with IC50 for human ACC2 (Homo sapiens (Human)), each taken from published literature.

molecule: CC(Cc1ccc(C#Cc2cnc(OC(C)C)nc2)cc1)NC(=O)C1CC1 (centres unmarked)
study.system: human ACC2 (Homo sapiens (Human))
IC50 (nM): 2400
--
molecule: CCOc1ccc(C#Cc2ccc([C@H](C)NC(=O)C3CC3)cc2)cc1
study.system: human ACC2 (Homo sapiens (Human))
IC50 (nM): 320
--
molecule: CCOc1cc(C#Cc2ccc(CC(C)NC(C)=O)cc2)ncn1 (centres unmarked)
study.system: human ACC2 (Homo sapiens (Human))
IC50 (nM): 1900
--
molecule: CCCS(=O)(=O)NC(C)Cc1ccc(C#Cc2ccc(OCC)cc2)cc1 (centres unmarked)
study.system: human ACC2 (Homo sapiens (Human))
IC50 (nM): 1200
--
molecule: CC(=O)N[C@@H](C)c1ccc(O[C@@H]2CCN(c3ccnc(OCC(C)C)c3C)C2)cc1
study.system: human ACC2 (Homo sapiens (Human))
IC50 (nM): 55
--
molecule: Cc1nnsc1C(=O)N[C@@H](C)c1ccc(OC2CCN(c3cccc(C(F)(F)F)n3)C2)cc1 (some centres unmarked)
study.system: human ACC2 (Homo sapiens (Human))
IC50 (nM): 314
--
molecule: C=C(C)CNC(=O)C(C)c1ccc(O[C@@H]2CCN(c3ncnc(OCC(C)(C)O)c3Cl)C2)cc1 (some centres unmarked)
study.system: human ACC2 (Homo sapiens (Human))
IC50 (nM): 315
--
molecule: CCNC(=O)C(C)c1ccc(C#Cc2ccc(OCCOCC)cc2)cc1 (centres unmarked)
study.system: human ACC2 (Homo sapiens (Human))
IC50 (nM): 1100

----------
Listed below are compounds with IC50 for UniProt:O00763, each taken from published literature.
experimental.readout: IC50 (nM)

compound: CC(=O)NC(C)Cc1ccc(C2CN(c3ccc(OC4CCC4)cc3)C2)cc1 (stereo not shown)
study.system: UniProt:O00763
experimental.readout: IC50
reported.result: 260
--
compound: CC(=O)N[C@@H](C)c1ccc(O[C@H]2CCN(c3ccc(OC4CC4)cc3C)C2)cc1
study.system: UniProt:O00763
experimental.readout: IC50
reported.result: 363
--
compound: CCOc1ccc(C#Cc2ccc(CC(C)NC(=O)C(C)O)cc2)cc1 (stereo not shown)
study.system: UniProt:O00763
experimental.readout: IC50
reported.result: 1500
--
compound: C[C@H](NC(=O)c1ccnnc1)c1ccc(OC2CCN(c3ccnc(OCC(F)F)c3)C2)cc1 (stereo partly shown)
study.system: UniProt:O00763
experimental.readout: IC50
reported.result: 714
--
compound: Cc1ccc(-c2ccc(Cl)cc2)c(C)c1C1=C(O)[C@]2(CC[C@H](OCC(F)(F)F)CC2)NC1=O
study.system: UniProt:O00763
experimental.readout: IC50
reported.result: 300
--
compound: CCOc1ccc(C#Cc2ccc(CC(C)NC(=O)C3CC3)cc2)cc1 (stereo not shown)
study.system: UniProt:O00763
experimental.readout: IC50
reported.result: 150
--
compound: CCNC(=O)C(C)c1ccc(C#Cc2cnc(NC3CCCC3)nc2)cc1 (stereo not shown)
study.system: UniProt:O00763
experimental.readout: IC50
reported.result: 710
--
compound: CC[C@H](C)Oc1cc(N2CC[C@@H](Oc3ccc([C@H](C)NC(C)=O)cc3)C2)ccn1
study.system: UniProt:O00763
experimental.readout: IC50
reported.result: 55
--
compound: C[C@H](NC(=O)c1cncs1)c1ccc(O[C@@H]2CCN(c3ccnc(OC4CCOC4)c3)C2)cc1 (stereo partly shown)
study.system: UniProt:O00763
experimental.readout: IC50
reported.result: 85
--
compound: CCNc1nccc(N2CC[C@@H](Oc3ccc([C@H](C)NC(C)=O)cc3)C2)c1F
study.system: UniProt:O00763
experimental.readout: IC50
reported.result: 260
--
compound: C[C@H](NC(=O)N(C)C)c1ccc(CN2Cc3ccc(OCC4CC4)cc3C(O)C2)cc1 (stereo partly shown)
study.system: UniProt:O00763
experimental.readout: IC50
reported.result: 155
--
compound: CC(=O)NC(C)Cc1ccc(C#Cc2ccc(OC3CCOCC3)cc2)cc1 (stereo not shown)
study.system: UniProt:O00763
experimental.readout: IC50
reported.result: 160
--
compound: CC(=O)N[C@@H](C)c1ccc(OC2CCN(c3ccc(F)c(C)n3)C2)cc1 (stereo partly shown)
study.system: UniProt:O00763
experimental.readout: IC50
reported.result: 107
--
compound: CCOc1ccc(C#Cc2ccc(CN3CCCC3=O)cc2)cc1
study.system: UniProt:O00763
experimental.readout: IC50
reported.result: 3200
